target-system: T1, hNPR1-mFc:hANP or hNPR1-hFc:hANP complex (human, UniProt P01160 124-151)
T1 construct: also called human NPR1 complexed to ANP
assay-procedure: SPR, mAb captured, 25C
Overview of recorded kon for various binders
Reply numerically in M⁻¹ s⁻¹, unit not repeated.

Some solved entries appear below for comparison.
binder | kon, M⁻¹ s⁻¹
mAb25497 (antibody, human IgG4, V domains shown) VH: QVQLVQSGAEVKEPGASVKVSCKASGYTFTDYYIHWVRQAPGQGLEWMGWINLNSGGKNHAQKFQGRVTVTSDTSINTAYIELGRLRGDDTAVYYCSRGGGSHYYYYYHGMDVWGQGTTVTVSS VL: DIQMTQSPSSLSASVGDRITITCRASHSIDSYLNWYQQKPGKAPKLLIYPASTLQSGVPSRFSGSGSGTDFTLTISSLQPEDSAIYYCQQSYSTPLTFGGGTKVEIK | 163000
mAb25479 (antibody, human IgG4, V domains shown) VH: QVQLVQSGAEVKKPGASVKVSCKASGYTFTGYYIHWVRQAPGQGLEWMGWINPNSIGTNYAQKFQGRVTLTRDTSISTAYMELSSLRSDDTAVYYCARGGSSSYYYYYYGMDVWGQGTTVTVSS VL: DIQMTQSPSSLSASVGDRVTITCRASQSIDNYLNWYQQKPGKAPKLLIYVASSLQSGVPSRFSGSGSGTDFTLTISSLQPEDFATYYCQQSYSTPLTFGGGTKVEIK | 31000

Please examine the following record next.
// lookup kon for mAb22805 (antibody, human IgG4, V domains shown) VH: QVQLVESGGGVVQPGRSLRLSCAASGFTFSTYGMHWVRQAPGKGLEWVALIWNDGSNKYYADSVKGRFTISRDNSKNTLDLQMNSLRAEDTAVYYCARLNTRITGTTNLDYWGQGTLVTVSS VL: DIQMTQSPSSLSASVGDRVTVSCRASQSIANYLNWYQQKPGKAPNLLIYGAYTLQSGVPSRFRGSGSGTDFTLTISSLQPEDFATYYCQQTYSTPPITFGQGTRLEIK
43100
